The measured values listed here are drawn from patent US4740233A.

Test system: yellow nutsedge
Assay: Control of aquatic plant species (paddy water)
Type: in vivo, Cyperus esculentus
Conditions: Cyperus, 216 h; 1.0 Kg/Ha, nine days; read-out: Percent control
Property: pest or weed control at 1000 g/ha

[
  {
    "Compound": "Cc1cc(C)n2nc(S(=O)(=O)Nc3c(F)cccc3C(=O)OC(C)C)nc2n1 [Compound 51]",
    "Target of assay": "yellow nutsedge",
    "Result": "97%"
  },
  {
    "Compound": "O=S(=O)(Nc1c(Cl)cccc1Cl)c1nc2ncc(Cl)cn2n1 [Compound 114]",
    "Target of assay": "yellow nutsedge",
    "Result": "90%"
  },
  {
    "Compound": "Cc1cc(C)n2nc(S(=O)(=O)Nc3ccccc3[N+](=O)[O-])nc2n1 [Compound 12]",
    "Target of assay": "yellow nutsedge",
    "Result": "95%"
  },
  {
    "Compound": "Cc1cc(C)n2nc(S(=O)(=O)Nc3ccccc3Br)nc2n1 [Compound 41]",
    "Target of assay": "yellow nutsedge",
    "Result": "80%"
  },
  {
    "Compound": "Cc1cc(C)n2nc(S(=O)(=O)Nc3ccccc3Cl)nc2n1 [Compound 7]",
    "Target of assay": "yellow nutsedge",
    "Result": "90%"
  },
  {
    "Compound": "CCc1cccc(CC)c1NS(=O)(=O)c1nc2nc(C)cc(C)n2n1 [Compound 33]",
    "Target of assay": "yellow nutsedge",
    "Result": "97%"
  },
  {
    "Compound": "CSc1ccccc1NS(=O)(=O)c1nc2nc(C)cc(C)n2n1 [Compound 9]",
    "Target of assay": "yellow nutsedge",
    "Result": "85%"
  },
  {
    "Compound": "Cc1cc(C)n2nc(S(=O)(=O)Nc3ccccc3I)nc2n1 [Compound 6]",
    "Target of assay": "yellow nutsedge",
    "Result": "90%"
  },
  {
    "Compound": "COC(=O)c1ccccc1NS(=O)(=O)c1nc2nc(C)cc(C)n2n1 [Compound 10]",
    "Target of assay": "yellow nutsedge",
    "Result": "90%"
  },
  {
    "Compound": "Cc1cc(C)n2nc(S(=O)(=O)Nc3ccccc3F)nc2n1 [Compound 8]",
    "Target of assay": "yellow nutsedge",
    "Result": "93%"
  },
  {
    "Compound": "Cc1ccnc2nc(S(=O)(=O)Nc3c(Cl)cccc3Cl)nn12 [Compound 180]",
    "Target of assay": "yellow nutsedge",
    "Result": "97%"
  }
]

---

Test system: corn
Experiment: Preemergent control of plant species
Assay type: in vivo, Zea mays
Conditions: Zea mays, pre-emergence, 336 h; 0.25 lb/acre; read-out: percent preemergent control
Procedure: The seeds of various species of plants were planted in beds of good agricultural soil in a greenhouse. A number of compositions of the present invention, generally in the nature of an aqueous emulsion, were applied at rates listed in the table so as to deposit a predetermined amount of active ingredients uniformly throughout the surface of the bed. Another seed bed was treated only with water to serve as a control. […]
# label = t if plant injury at 280.212 g/ha >= 90% else f

[
  {
    "Smiles str": "CC(C)=NOC(=O)c1cccc(C)c1NS(=O)(=O)c1nc2nc(C)cc(C)n2n1",
    "Group": "f"
  },
  {
    "Smiles str": "COC(=O)c1ccc(C)c(NS(=O)(=O)c2nc3nc(C)cc(C)n3n2)c1Br",
    "Group": "f"
  },
  {
    "Smiles str": "Cc1cc(C)n2nc(S(=O)(=O)Nc3ccccc3Br)nc2n1",
    "Group": "f"
  },
  {
    "Smiles str": "COc1nc2nc(S(=O)(=O)Nc3ccccc3C(F)(F)F)nn2cc1C",
    "Group": "f"
  },
  {
    "Smiles str": "Cc1cc(C(F)(F)F)n2nc(S(=O)(=O)Nc3c(F)cccc3F)nc2n1",
    "Group": "f"
  },
  {
    "Smiles str": "Cc1cnc2nc(S(=O)(=O)Nc3c(Cl)cccc3Cl)nn2c1",
    "Group": "f"
  },
  {
    "Smiles str": "COC(=O)c1cccc(C)c1NS(=O)(=O)c1nc2nccc(C)n2n1",
    "Group": "f"
  },
  {
    "Smiles str": "Cc1cc(C)n2nc(S(=O)(=O)Nc3ccccc3C(N)=O)nc2n1",
    "Group": "t"
  },
  {
    "Smiles str": "CSc1nc2nc(S(=O)(=O)Nc3c(Cl)cccc3Cl)nn2cc1C",
    "Group": "f"
  },
  {
    "Smiles str": "Cc1ccnc2nc(S(=O)(=O)Nc3c(F)cccc3F)nn12",
    "Group": "f"
  },
  {
    "Smiles str": "Cc1cccc(Cl)c1NS(=O)(=O)c1nc2nc(C)c(C)c(C)n2n1",
    "Group": "f"
  },
  {
    "Smiles str": "COc1cccc(F)c1NS(=O)(=O)c1nc2nc(C)ccn2n1",
    "Group": "f"
  },
  {
    "Smiles str": "Cc1ccn2nc(S(=O)(=O)N(C(=O)c3ccccc3)c3c(Cl)cccc3Cl)nc2n1",
    "Group": "f"
  },
  {
    "Smiles str": "CC(C)c1ccn2nc(S(=O)(=O)Nc3c(Cl)cccc3Cl)nc2n1",
    "Group": "f"
  },
  {
    "Smiles str": "Cc1ccn2nc(S(=O)(=O)Nc3c(C)nn(C)c3C(F)(F)F)nc2n1",
    "Group": "f"
  },
  {
    "Smiles str": "Cc1cc(C)n2nc(S(=O)(=O)Nc3c(C)ccc(Cl)c3C)nc2n1",
    "Group": "f"
  },
  {
    "Smiles str": "C=CCOC(=O)c1cccc(C)c1NS(=O)(=O)c1nc2nc(C)cc(C)n2n1",
    "Group": "t"
  },
  {
    "Smiles str": "Cc1ccn2nc(S(=O)(=O)N(C(=O)CCCl)c3c(F)cccc3F)nc2n1",
    "Group": "t"
  },
  {
    "Smiles str": "Cc1cc(C)n2nc(S(=O)(=O)Nc3c(F)cccc3F)nc2n1",
    "Group": "t"
  },
  {
    "Smiles str": "COc1cccc(C(F)(F)F)c1NS(=O)(=O)c1nc2nccc(C)n2n1",
    "Group": "t"
  },
  {
    "Smiles str": "CCCCCCCCCC(=O)N(c1c(F)cccc1F)S(=O)(=O)c1nc2nc(C)ccn2n1",
    "Group": "f"
  },
  {
    "Smiles str": "COc1nc2nc(S(=O)(=O)Nc3c(Cl)ccc(C)c3Cl)nn2cc1C",
    "Group": "f"
  },
  {
    "Smiles str": "COc1nc2nc(S(=O)(=O)Nc3c(C)cccc3Cl)nn2cc1C",
    "Group": "t"
  },
  {
    "Smiles str": "Cc1ccn2nc(S(=O)(=O)N(c3c(F)cccc3F)S(=O)(=O)c3ccccc3)nc2n1",
    "Group": "f"
  },
  {
    "Smiles str": "Cc1ccn2nc(S(=O)(=O)N(C(=O)C3CC3)c3c(F)cccc3F)nc2n1",
    "Group": "t"
  },
  {
    "Smiles str": "Cc1ccn2nc(S(=O)(=O)N(C(=O)CC(C)(C)C)c3c(F)cccc3F)nc2n1",
    "Group": "f"
  },
  {
    "Smiles str": "Cc1cc(C)n2nc(S(=O)(=O)Nc3ccccc3F)nc2n1",
    "Group": "f"
  },
  {
    "Smiles str": "CC(=O)N(c1c(F)cccc1F)S(=O)(=O)c1nc2nc(C)ccn2n1",
    "Group": "f"
  },
  {
    "Smiles str": "CCCCC(=O)N(c1c(F)cccc1F)S(=O)(=O)c1nc2nc(C)ccn2n1",
    "Group": "f"
  },
  {
    "Smiles str": "COc1ccc(Cl)c(NS(=O)(=O)c2nc3nc(C)ccn3n2)c1Cl",
    "Group": "f"
  },
  {
    "Smiles str": "CCc1cccc(CC)c1NS(=O)(=O)c1nc2nc(C)cc(C)n2n1",
    "Group": "f"
  },
  {
    "Smiles str": "COc1nc2nc(S(=O)(=O)Nc3c(F)cccc3F)nn2cc1C",
    "Group": "t"
  },
  {
    "Smiles str": "Cc1cc(C)n2nc(S(=O)(=O)Nc3cccc(Cl)c3Cl)nc2n1",
    "Group": "f"
  },
  {
    "Smiles str": "Cc1cc(C)n2nc(S(=O)(=O)Nc3c(Cl)cccc3Br)nc2n1",
    "Group": "t"
  }
]
